FYI, the data here is from PubChem BioAssay (NCI).

test system: A549/ATCC NSCLC; assay: NCI-60 one-dose screen, 48 h; conditions: 10 µM unless noted
About 83,000 compounds went through this panel and 20% of them were active in at least one assay; those are over-represented in the sample as a whole. The source made the active and inactive calls. The calls were made as follows: active = growth percent below 10; inactive = the rest.
Lab note: assign the record to one of label 1 (active), label 0 (inactive)

Example entries begin here.
O=C(O)CCC(=O)Nc1nnc(-c2ccccc2)s1 | label 0
CN1CCN(c2ccc(-c3cnc4c(-c5csc6ccccc56)cnn4c3)cc2)CC1 | label 1
Cc1oc2nc[nH]c(=O)c2c1C(=O)/C=C/c1ccc(Br)cc1 | label 1
C=C1C(=O)O[C@H]2[C@H]1CC/C(COC(=O)NCCOCCOCC(=O)Nc1ccc(OC)c(C(N)=O)c1O)=C\CC[C@@]1(C)O[C@@H]21 | label 0

// outcome(item) with item = NS(=O)(=O)c1ccc(N=Nc2ccc(-c3nn4cc(-c5ccccc5)nc4s3)cc2)cc1
label 0

Record request — test call for O=c1c2cc(C(F)(F)F)ccc2sc2c(NCCCNCCO)nc3ccccc3c12
label 1

Name the outcome recorded for O=c1c2cc(F)ccc2sc2c(NCCCNCCO)nc3ccc(F)cc3c12 in the assay.
label 0

What is the recorded call for this molecule in the test? Cc1ccc(/C=N\NC(=O)c2[nH]c3ccc(F)cc3c2-c2ccccc2)cc1
label 0

// return assay outcome for COc1ccc(C(Cc2ccccc2)NCCN2CCOCC2)cc1 (stereo not drawn)
label 0

Hi, do you know how COc1ccc(C2CC(c3ccc(Nc4nc(Nc5ccc(F)cc5)nc(Nc5ccc(Cl)cc5)n4)cc3)=NN2C(C)=O)cc1 (stereo not drawn) came out in this test?
label 0

What did the test return for Cc1ccc(C(=O)NN2C(=O)CSC2c2ccc(Cl)cc2)cn1 (stereo not drawn) ?
label 0

Any idea what this test logged for COc1c(N2CC3CCCN(C(C)=O)C3C2)c(F)cc2c(=O)c(C(=O)N[C@H]3C(O)[C@@H](O)C(CO)O[C@H]3O)cn(C3CC3)c12 (stereo partly drawn) ?
label 0

What outcome does the record of this test show for COc1cc2cc(Oc3ccc(NC(=O)Nc4cccc(C(F)(F)F)c4)cc3)c(C)nc2cc1OCCN1CCOCC1 ?
label 0

GET /call?item= O=C1CCC(C(=O)NCCNCCNC(=O)C2CCC(=O)N2)N1 (stereo not drawn) returns the recorded outcome of this test.
label 0

Short answer needed: outcome of this test for CC1=C(C)C(=O)C(Nc2cccc(C(=O)OC(C)(C)C)c2)=C(Br)C1=O ?
label 0

Tell me the assay call for CC([C@H]1CCC2C3CCC4C[C@@H](NC=O)CC[C@]4(C)C3CC[C@@]21C)N(C)C (stereo partly drawn) please.
label 0

Could you check what this test reported for CCCCn1c(=O)c(-c2cc(-c3ccc(Cl)cc3)nc(-c3ccc(Cl)cc3)c2)cc2ccc(Cl)cc21 ?
label 0

Assay outcome for Cc1ccc(-c2nc(N3CCN(C(=O)c4ccc(OC(F)(F)F)cc4)CC3)c3ccccc3n2)cc1 : what was it?
label 0

Status in this test for Cc1ccc2c(n1)C(=O)C(Cl)=C(Nc1ccccc1C(C)C)C2=O ?
label 0

Record request — test call for C/C(=N/NC(N)=S)c1sc(Nc2cccc(Cl)c2)nc1C
label 0

Could you check what this test reported for C=CCNc1ccc2c3c(cccc13)C(=O)N(N1C(=O)c3cccc4cccc(c34)C1=O)C2=O ?
label 0

For NS(=O)(=O)c1ccc(-n2nc(-c3ccc(Cl)cc3)c3ccccc3c2=O)cc1 , what call appears in the results of this test?
label 0

---

test system: SW-620 colon; test: NCI-60 one-dose screen, 48 h; conditions: 10 µM unless noted
The panel holds about 83,000 compounds, 20% with a hit somewhere; the sample as a whole holds those more often. Active and inactive are the calls of the source. Rule for the calls: active = growth percent below 10; inactive = the rest.
# valid calls are active, inactive; nothing else

Answered cases to consult:
CCOC(=O)C1=C(N)Oc2c(sc3c(C)cccc23)C1c1ccc(OC)cc1 (configuration not stated) | inactive
O=C1c2ccccc2NC(n2sc3ccccc3c2=O)N1c1ccccc1 (configuration not stated) | inactive
COc1ccc(C2C(N)=NNC2c2cccc(O)c2)cc1 (configuration not stated) | inactive
O=C(Cc1ccc(F)c(Cl)c1)Nc1cc(C2(C(F)(F)F)CC2)nn1CC1CCCCC1 | inactive
CCCCC[C@H](O)C/C=C1/C(=O)C=C[C@@H]1C/C=C\CCCC(=O)O | inactive

What is the recorded call for this compound in the test? CCCCC[C@H](O)C/C=C1/C(=O)C=C[C@@H]1C/C=C\CCCC(=O)OC
inactive

---

Kindly supply the reported growth values for the records listed here.
tested on: COLO 205 colon; assay: NCI-60 one-dose screen, 48 h (100 = growth as untreated, 0 = no growth, -100 = all killed); conditions: 10 µM unless noted
This is part of a sample that, as a whole, favours compounds with a hit. Of some 83,000 tested, about 20% had one in any assay.
Give bare numbers, in %.

Below are worked cases with known answers.
Fc1cc(-c2nnc3sc(-c4ccc(Cl)cc4Cl)nn23)c(Cl)cc1Cl | 72.3
COc1ccc2nc(NC(=O)c3cccnc3Nc3ccc(S(N)(=O)=O)cc3)sc2c1 | 159
CCCCCCCNC(=O)CCCNc1ncnc2c1ncn2-c1cccc(C(C)O)c1 (stereo not drawn) | 92.9
COc1ccc(C2=Nn3c(nnc3-c3cc(Cl)cc(Cl)c3Cl)SC2)cc1 | -34.4
O=c1n(Cc2ccc3ccccc3c2)ccn1Cc1ccc2ccccc2c1 | 96.1

State recorded growth for all listed compounds.
1. Cc1c(C(=O)/C=C/Nc2c(Cl)cc(S(N)(=O)=O)cc2Cl)sc2nc3ccccc3n12
2. Cc1cc(O)c(C2=NN(c3ccc(S(N)(=O)=O)cc3)C(/C=C/c3ccccc3)C2)cc1Cl (stereo not drawn)
3. CC(C)OC(=O)Nc1ccc(-c2nc(-c3cccc(OCCN4CCOCC4)c3)c(-c3ccnc(Br)c3)[nH]2)cc1
4. NCCCNc1nc2ccccc2c2c(=O)c3cc(C(F)(F)F)ccc3sc12
5. Cc1nc2nc(SCC(=O)O)[nH]c2c(=O)[nH]1

[110, 65.2, -5.63, -41.4, 109]

Provide growth for all items below, preserving their order.
1. CN1C(=O)CNC(=O)[C@H](NC(=O)c2nc3ccccc3cc2O)CSSC[C@H]1C(=O)NCCCc1nc2ccccc2cc1O
2. COc1ccc(-c2cnc3ccccc3n2)cc1
3. COc1ccc(-c2nc3sc(-c4ccccc4)cn3n2)cc1

-9.63
104
36.7

---

system: SK-OV-3 ovarian; assay: NCI-60 one-dose screen, 48 h (100 = growth as untreated, 0 = no growth, -100 = all killed); settings: 10 µM unless noted
This is part of a sample that, as a whole, favours compounds with a hit. Of some 83,000 tested, about 20% had one in any assay.
reportedMetric: growth (%)
One number for each entry, in %.

Here's what some known entries look like.
CCOC(=O)c1[nH]c(C)c(C(=O)OCc2ccccc2C#N)c1C | 88.3
CN(C)c1ccc(/C=N\Nc2cc(=O)[nH]c3ccc(Cl)cc23)cc1 | 82.9
Cc1ccc(-c2nc(N3CCN(C(=O)Nc4ccc(Cl)c(C(F)(F)F)c4)CC3)c3ccccc3n2)cc1 | 81.7

Fill in growth for each of the 2 compounds listed.
1. CC1Cc2ccccc2N1NC(=O)c1ccc(Cl)c(S(N)(=O)=O)c1 (stereo not given)
2. O=CN1N=C(c2ccc(Nc3ccnc4cc(Cl)ccc34)cc2)CC1c1ccccc1 (stereo not given)

1: 98.4; 2: 41.3

---

tested on: A549/ATCC NSCLC; experiment: NCI-60 one-dose screen, 48 h; details: 10 µM unless noted
Compounds without any hit were thinned out: in the full panel of roughly 83,000, 20% have a hit. Activity calls are given as the source filed them. Rule for the calls: active = growth percent below 10; inactive = the rest.
Select the correct class. Options are class 1 (active), class 0 (inactive) and nothing else.

Use the examples below as a reference point.
Cn1cc(-c2cc3ncnc(Nc4ccc(CC(=O)Nc5cc(C(C)(C)C)nn5C)cc4)c3s2)cn1 | class 0
Cc1ccc(C(=O)NCCNc2nccc(-c3c(-c4cccc(F)c4)nc4sccn34)n2)cc1 | class 0
COc1c(B(O)O)cc(C)cc1-c1nc2ccc3[nH]ncc3c2c2c1CCCC2 | class 0
O=C(CCCCCCSc1nc(-c2ccccc2)cc(-c2ccccc2)n1)NO | class 0

Recorded test outcome, item CCN(CC)Cc1cc(Nc2c3ccc(Cl)cc3nc3ccc(OC)cc23)ccc1O
class 0

Lab log entry: COc1ccc(-c2csc(NC(=O)N3CCN(c4cc5c(cc4F)c(=O)c(C(=O)O)cn5C4CC4)CC3)n2)cc1 — outcome as called in the assay?
class 1

Outcome? c1ccc2c(-c3nc(-c4c[nH]c5ccncc45)cs3)c[nH]c2c1
class 0

What was the test verdict on Cc1c(C(=O)NCCCc2ccccc2)sc2ncc(-c3ccc(Br)cc3)n12 ?
class 0

Hi team, can someone confirm the assay call for NCCCNc1nc2ccc(Cl)cc2c2c(=O)c3cc(F)ccc3sc12 ?
class 0
